- target entity: Cytochrome P450 2C19 (Homo sapiens)
- assay text: Cytochrome panel assay with activity outcomes
- stated conditions: recombinant CYP, pro-luciferin dealkylation, luminescence, p450-cyp2c19; series mostly up to 57.1 µM
The whole screen tested about 16,000 compounds, of which about 5,800 (36%) were called active. Inconclusive results (about 23%) are left out. Calls come from the whole dose curve; as a rule, active = well fitted curve in the direction sought with a large enough effect; inconclusive = small, poorly fitted or top-dose-only effect, or effect the other way; inactive = no such curve, though single readings can be large or run the other way. This is one part of the list.
Outcomes: y = active, n = inactive

{"compound": "Nc1cc(=O)[nH]c(N)n1", "discrete label": "n"}
{"compound": "CC(=O)Nc1cccc(C(=O)OC(C(=O)c2ccc(C)c(C)c2)c2ccccc2)c1 (stereo not given)", "discrete label": "y"}
{"compound": "COC(=O)Cn1c(CN(Cc2ccccc2)Cc2ccccc2)nc2c1c(=O)[nH]c(=O)n2C", "discrete label": "y"}
{"compound": "CCCC1(C(=O)OC)C=C2C(=C(C)C(=O)C2C)CN1 (stereo not given)", "discrete label": "n"}
{"compound": "CN1CCN(c2ncc3nc(-c4cccc(C#N)c4)c(=O)n(CCC#N)c3n2)CC1", "discrete label": "n"}
{"compound": "COC(=O)C1=C(C)NC2=C(C(=O)CCC2)C1c1cn(Cc2ccc(Cl)cc2Cl)nc1-c1ccccc1 (stereo not given)", "discrete label": "y"}
{"compound": "Cn1c(=O)[nH]c(=O)c2c1nc(CN(Cc1ccccc1)Cc1ccccc1)n2CCN1CCOCC1", "discrete label": "y"}
{"compound": "CCOc1ccc(CCNC(=O)C2CCN(S(=O)(=O)CC)CC2)cc1OCC", "discrete label": "n"}
{"compound": "Cc1ccc(NC(=O)CN2C(=O)S/C(=C\\c3cccn3C)C2=O)cc1", "discrete label": "n"}
{"compound": "CN(C)c1ncc2nc(-c3cc(F)cc(F)c3)c(=O)n(CCC#N)c2n1", "discrete label": "n"}
{"compound": "CCn1c(C)cc(/C=C2\\SC(=O)N(CC(=O)Nc3ccc(C)c(C)c3)C2=O)c1C", "discrete label": "y"}
{"compound": "CCC(=O)NNc1cc(=O)c2c(=O)n(C)c(=O)n(C)c2[nH]1", "discrete label": "n"}
{"compound": "COCCCN=CC1=C(O)CC(C)(C)CC1=O", "discrete label": "n"}
{"compound": "O=[N+]([O-])c1ccc(N2CCCC2)cc1N1CCCC1", "discrete label": "y"}
{"compound": "COC(=O)C1(CC(C)C)C=C2C(=C(c3ccccc3)C(=O)C2C)CN1 (stereo not given)", "discrete label": "y"}
{"compound": "Cn1cc(/C=C2/SC(=O)N(CC(=O)Nc3ccc4c(c3)OCO4)C2=O)c2ccccc21", "discrete label": "y"}
{"compound": "CC(C)n1cc(/C=C2/SC(=O)N(CC(=O)Nc3ccc4c(c3)OCO4)C2=O)c2ccccc21", "discrete label": "y"}
{"compound": "CCOC(=O)C1(N(CC)CC)Sc2cc(C)ccc2NC1=O (stereo not given)", "discrete label": "y"}
{"compound": "Clc1ccc(N2CCCCCC2)nn1", "discrete label": "n"}
{"compound": "O=[N+]([O-])c1ccc(N2CCCCC2)c(Cl)c1N1CCCCC1", "discrete label": "y"}
{"compound": "CN1CC(c2ccccn2)C2(SC(=S)N(Cc3ccccc3)C2=O)C12C(=O)Nc1ccccc12 (stereo not given)", "discrete label": "y"}
{"compound": "Cc1ccc(NC(=O)C2C3CCCC2C3c2ccccc2)cc1C (stereo not given)", "discrete label": "n"}
{"compound": "O=C1OCCC1Sc1nnnn1-c1ccccc1 (stereo not given)", "discrete label": "y"}
{"compound": "O=C(Nc1ccc(Cl)c(C(F)(F)F)c1)C1CCCN(S(=O)(=O)c2cnc[nH]2)C1 (stereo not given)", "discrete label": "y"}
{"compound": "CO/N=C(/CNC(=O)c1cccc(Cl)c1)c1ccc(Cl)cc1", "discrete label": "y"}
{"compound": "CN1CC(c2ccccc2)C2(COc3ccccc3C2=O)C12C(=O)Nc1ccccc12 (stereo not given)", "discrete label": "y"}
{"compound": "O=C(c1cc(-c2ccc(Cl)cc2Cl)on1)N1CCN(C(=O)c2ccco2)CC1", "discrete label": "y"}
{"compound": "Cc1nc(N/N=C/c2ccccc2)nc(N(C)c2ccccc2)c1[N+](=O)[O-]", "discrete label": "n"}
{"compound": "O=C(NCc1ccccc1Cl)C1CCN(S(=O)(=O)N2CCC3(CC2)OCCO3)CC1", "discrete label": "y"}
{"compound": "COc1nc(OCCNC(C)=O)nc(N(C)C)n1", "discrete label": "n"}

Data origin, for the record: PubChem BioAssay AID1851
